Target: SaClpP (Staphylococcus aureus ClpP) (Staphylococcus aureus)
Sequence (Q2G036 whole entry): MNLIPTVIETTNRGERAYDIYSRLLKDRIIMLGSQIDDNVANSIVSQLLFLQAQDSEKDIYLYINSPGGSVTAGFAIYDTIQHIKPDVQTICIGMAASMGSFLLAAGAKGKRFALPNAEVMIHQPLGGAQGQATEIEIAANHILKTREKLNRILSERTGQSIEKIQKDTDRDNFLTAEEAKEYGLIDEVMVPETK
Assay: ITC; also BLI (Kd […]), DSF, CETSA, X-ray crystal structure
Format: binding
measurementLabel: Kd (µM)

- compound: "CC[C@@H](C)[C@H]1C(=O)N([C@@H](C)c2cccc3ccccc23)C[C@@H]2N(C(=O)NCCCC(F)(F)F)CCC(=O)N12 [(S)-ZG197]"
  unitsLabel: "µM"
  recordedResult: 5

----------
Test system: Staphylococcus aureus NRS70
Construct: NRS70
Experiment: microbe, parasite or virus in culture
Set-up: species or system Staphylococcus aureus strains; Minimum inhibitory concentration, growth inhibition of S. aureus strains in culture
Settings: NRS70, read-out: MIC
This listing pairs compounds with measured MIC.
measurementLabel: MIC (µg/mL)

- compound: "O=C1C2=C(CCN(Cc3ccccc3)C2)N2CCN=C2N1Cc1ccc(C(F)(F)F)cc1 [ONC212]"
  measurementLabel: "MIC"
  unitsLabel: "µg/mL"
  recordedResult: 0.25
- compound: "CC[C@H](C)[C@H]1C(=O)N([C@H](C)c2cccc3ccccc23)C[C@@H]2N(C(=O)NCCCC(F)(F)F)CCC(=O)N12 [(R)-ZG197]"
  measurementLabel: "MIC"
  unitsLabel: "µg/mL"
  recordedResult: 0.5
- compound: "Cc1onc(-c2ccccc2)c1C(=O)N[C@@H]1C(=O)N2[C@@H]1SC(C)(C)[C@@H]2C(=O)O [Oxacillin]"
  measurementLabel: "MIC"
  unitsLabel: "µg/mL"
  recordedResult: 2
- compound: "CC[C@@H](C)[C@H]1C(=O)N([C@@H](C)c2cccc3ccccc23)C[C@@H]2N(C(=O)NCCCC(F)(F)F)CCC(=O)N12 [(S)-ZG197]"
  measurementLabel: "MIC"
  unitsLabel: "µg/mL"
  recordedResult: 4
- compound: "CN(C)[C@@H]1C(O)=C(C(N)=O)C(=O)[C@@]2(O)C(O)=C3C(=O)c4c(O)cccc4[C@@](C)(O)[C@H]3C[C@@H]12 [Tetracycline]"
  measurementLabel: "MIC"
  unitsLabel: "µg/mL"
  recordedResult: 0.06

----------
This listing pairs compounds with measured MIC.
Tested on: Staphylococcus aureus Newman
Construct: Newman
Assay: microbe, parasite or virus in culture
Design: species or system Staphylococcus aureus strains; Minimum inhibitory concentration, growth inhibition of S. aureus strains in culture
Details: NEWMAN, read-out: MIC

- compound: "CC[C@@H](C)[C@H]1C(=O)N([C@@H](C)c2cccc3ccccc23)C[C@@H]2N(C(=O)NCCCC(F)(F)F)CCC(=O)N12 [(S)-ZG197]"
  MIC, µg/mL: 2
- compound: "CC[C@H](C)[C@H]1C(=O)N([C@H](C)c2cccc3ccccc23)C[C@@H]2N(C(=O)NCCCC(F)(F)F)CCC(=O)N12 [(R)-ZG197]"
  MIC, µg/mL: 0.5
- compound: "Cc1onc(-c2ccccc2)c1C(=O)N[C@@H]1C(=O)N2[C@@H]1SC(C)(C)[C@@H]2C(=O)O"
  MIC, µg/mL: 0.1
- compound: "O=C1C2=C(CCN(Cc3ccccc3)C2)N2CCN=C2N1Cc1ccc(C(F)(F)F)cc1"
  MIC, µg/mL: 0.25
